All values here come from ChEMBL document CHEMBL1151166.

Measured inhibition at 30 µM of individual entries
tested on: Hepatocyte; experiment: Hepatoprotective activity in ddY mouse hepatocytes assessed as inhibition of D-galactosamine-induced cytotoxicity at 30 uM after 44 hrs by MTT assay relative to control; format: functional
Return type: number; implicit unit %.

# compound, experimental.system, observed.property, units.text, test.result
records = [
    ("COc1cc(C2Oc3cc([C@H]4Oc5cc(O)cc(O)c5C(=O)[C@@H]4O)ccc3OC2CO)ccc1O (some centres undefined)", "Hepatocyte", "inhibition at 30 µM", "%", 45.2),
    ("C=C(C)C(CC[C@@H](C)O)CC1=C(C)CCC1=O (some centres undefined)", "Hepatocyte", "inhibition at 30 µM", "%", -1.4),
    ("CC1(C)CC2[C@H]1CC[C@@]1(C)OC[C@]2(O)CC[C@@H]1O (some centres undefined)", "Hepatocyte", "inhibition at 30 µM", "%", 24.8),
]

Now, please, on to the next compound.
### Prompt Give the measured inhibition at 30 µM of CC1(C)C[C@@H]2O[C@@]2(C)CC[C@H]2O[C@]2(C)C[C@@H]2O[C@H]21 .
### Response 25.7
